target: ZFP SBS#1294 (synthetic); assay: EMSA; conditions: tags: MBP fusion
Sequence (chain, as listed by the source): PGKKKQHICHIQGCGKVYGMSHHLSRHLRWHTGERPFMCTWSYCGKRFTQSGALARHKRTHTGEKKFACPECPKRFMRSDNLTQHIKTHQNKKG

>  <binder>
AAGGTAGGT (dsDNA) DNA 1: AAGGTAGGT DNA 2: ACCTACCTT

>  <Kd / nM>
2.75

$$$$

All figures here come from patent US20030068675.
